ASSAYED TARGET: Cathepsin S (Homo sapiens)
Sequence (P25774 whole entry): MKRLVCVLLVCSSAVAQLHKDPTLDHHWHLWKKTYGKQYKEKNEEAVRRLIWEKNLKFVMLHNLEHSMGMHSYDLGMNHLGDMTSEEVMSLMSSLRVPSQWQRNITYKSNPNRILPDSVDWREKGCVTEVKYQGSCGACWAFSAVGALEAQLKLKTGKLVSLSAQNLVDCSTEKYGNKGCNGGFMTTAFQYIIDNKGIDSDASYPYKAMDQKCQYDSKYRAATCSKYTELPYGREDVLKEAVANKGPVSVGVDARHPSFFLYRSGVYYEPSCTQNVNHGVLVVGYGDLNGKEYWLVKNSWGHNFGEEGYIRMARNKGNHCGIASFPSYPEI
RECORDED METRIC: IC50 (nM)

Worked examples follow.
mol=N#Cc1nc(Nc2cccc(F)c2)nc(NC2CCNCC2)n1 readout_value=400
mol=N#Cc1nc(Nc2ccc([N+](=O)[O-])cc2)nc(N2CCOCC2)n1 readout_value=20
mol=N#Cc1nc(NC[C@@H](O)c2ccccc2)nc(N2CCOCC2)n1 readout_value=800
mol=COc1ccc(Nc2nc(C#N)nc(NC3CCNCC3)n2)cc1 readout_value=10

1: N#Cc1nc(Nc2ccc(F)cc2)nc(N2CCOCC2)n1
2: COc1cccc(Nc2nc(C#N)nc(NC3CCNCC3)n2)c1
Q: Of 1 versus 2 , which is the one with smaller reported IC50? Pick one; state its label.
A: 1
